system: RUNX1 (UniProt Q01196)
Sequence (Q01196 whole entry): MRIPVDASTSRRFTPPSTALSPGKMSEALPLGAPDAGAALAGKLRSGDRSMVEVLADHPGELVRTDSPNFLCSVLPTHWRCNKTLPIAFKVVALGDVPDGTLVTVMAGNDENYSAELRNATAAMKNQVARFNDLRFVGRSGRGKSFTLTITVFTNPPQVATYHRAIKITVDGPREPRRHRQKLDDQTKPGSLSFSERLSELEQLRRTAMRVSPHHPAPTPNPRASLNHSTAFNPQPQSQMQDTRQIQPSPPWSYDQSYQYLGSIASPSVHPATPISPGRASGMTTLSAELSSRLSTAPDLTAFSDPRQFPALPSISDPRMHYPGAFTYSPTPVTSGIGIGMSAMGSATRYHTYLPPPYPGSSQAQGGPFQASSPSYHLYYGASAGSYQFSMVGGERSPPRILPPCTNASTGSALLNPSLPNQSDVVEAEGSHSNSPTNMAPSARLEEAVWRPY
assay_protocol: RUNX1 binding intensity (PBM fluorescence) in presence of ETS1, normalised to RUNX1-only experiment (arbitrary fluorescence units); higher = stronger binding
recorded_conditions: RUNX1 concentration 2 nM; ETS1 concentration 25 nM
property_label: RUNX1 binding intensity
Answers are plain numbers.

# macromolecule_sequence, system, measured_result
data = [
    ("TATATGCACAGGAAGTCCCTTACAACCCACTCTGTT", "RUNX1 (UniProt Q01196)", 1130),
]

Return reported RUNX1 binding intensity values for all items listed beneath this line.
1. ATTGCTTCCGACGCTACTCCTGCCGGGTCACCACAG
2. TCCTCCATGCAGGAAAACCTCTGTGGTCTGGGAGCT
3. GGCTGGGGCGGTATCCTGTGGTCTTACTCTGGTGAC
4. ACCTCTCTCACTTCCTACCAGAGAACCACAGCCAAG
5. TCTGGATTTCCTGTGGGGCTCTCCCACAAGCAGTAC

1020
862
2620
2150
1390

###

system: ETS1 (UniProt P14921)
Sequence: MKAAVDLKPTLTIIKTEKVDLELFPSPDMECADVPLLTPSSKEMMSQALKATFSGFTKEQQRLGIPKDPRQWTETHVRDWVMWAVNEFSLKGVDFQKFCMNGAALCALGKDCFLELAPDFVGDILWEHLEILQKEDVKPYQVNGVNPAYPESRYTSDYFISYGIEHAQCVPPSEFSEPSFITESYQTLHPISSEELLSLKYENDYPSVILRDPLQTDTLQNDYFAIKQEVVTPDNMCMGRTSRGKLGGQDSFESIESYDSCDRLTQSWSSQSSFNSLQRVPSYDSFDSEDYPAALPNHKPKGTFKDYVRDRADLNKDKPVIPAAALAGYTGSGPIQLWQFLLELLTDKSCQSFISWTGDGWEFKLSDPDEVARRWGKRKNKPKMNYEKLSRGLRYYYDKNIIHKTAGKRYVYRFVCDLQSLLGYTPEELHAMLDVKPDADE
assay_protocol: ETS1 binding intensity (PBM fluorescence) in presence of RUNX1, normalised to ETS1-only experiment (arbitrary fluorescence units); higher = stronger binding
recorded_conditions: ETS1 concentration 1 nM; RUNX1 concentration 25 nM
Please respond with reported ETS1 binding intensity for every item in the list.
Numbers only.

# macromolecule_sequence, ETS1 binding intensity
rows = [
    ("ACCTTCCTTCCTGCCTCCCTTGTGGCTCCAGTCCAC", 312),
]

Return reported ETS1 binding intensity values for all items listed beneath this line.
1. CAGTGGCTAAGGATCCGGTGTTGCGGTGATACATGA
2. TGAGAGTAAAAAGGATGTGGTTTCCTTTCATTTTTT
3. TATCACATCCTGCCGGACAAAAAGGCCAAACCACCT

643
6790
473

###

system: ETS1 (UniProt P14921)
Sequence: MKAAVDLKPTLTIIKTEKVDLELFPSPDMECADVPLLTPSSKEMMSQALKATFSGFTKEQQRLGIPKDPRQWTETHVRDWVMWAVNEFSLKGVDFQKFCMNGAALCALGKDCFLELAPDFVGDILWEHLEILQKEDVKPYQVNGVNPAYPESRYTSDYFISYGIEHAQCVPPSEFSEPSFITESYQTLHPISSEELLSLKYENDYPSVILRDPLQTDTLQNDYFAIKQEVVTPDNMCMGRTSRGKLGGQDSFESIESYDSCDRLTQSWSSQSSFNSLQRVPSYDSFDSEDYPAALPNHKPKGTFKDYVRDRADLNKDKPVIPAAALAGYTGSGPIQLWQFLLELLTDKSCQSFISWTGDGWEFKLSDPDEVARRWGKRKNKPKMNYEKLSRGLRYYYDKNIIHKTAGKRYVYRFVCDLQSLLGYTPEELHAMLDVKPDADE
assay_protocol: TF binding intensity (PBM fluorescence), negative control probe (arbitrary fluorescence units); higher = stronger binding
property_label: TF binding intensity
Answers are plain numbers.

Illustrative cases are given below, each with its answer.
# macromolecule_sequence, measured_result
records = [
    ("CTTATTATTAATGGTCATTAGCCACAGTCACCACCA (protein concentration 10 nM)", 137),
    ("CCAGCAGCAGTTGTGAATTGGGTAATTTAATGAAAA (protein concentration 10 nM)", 116),
]

Return reported TF binding intensity values for all items listed beneath this line.
1. AAAACAAACAAACCAAACAACACAACAGAAGTTTTC (protein concentration 10 nM)
2. TGACCATTTGAGGTTTGTGGTTATGCATATAAAATG (protein concentration 1 nM)

[150, 577]

The reported numbers originate from the supplement of paper PMC10681739.
